Target: human MC3R (human, UniProt P41968 1-323)
Sequence (P41968 whole entry): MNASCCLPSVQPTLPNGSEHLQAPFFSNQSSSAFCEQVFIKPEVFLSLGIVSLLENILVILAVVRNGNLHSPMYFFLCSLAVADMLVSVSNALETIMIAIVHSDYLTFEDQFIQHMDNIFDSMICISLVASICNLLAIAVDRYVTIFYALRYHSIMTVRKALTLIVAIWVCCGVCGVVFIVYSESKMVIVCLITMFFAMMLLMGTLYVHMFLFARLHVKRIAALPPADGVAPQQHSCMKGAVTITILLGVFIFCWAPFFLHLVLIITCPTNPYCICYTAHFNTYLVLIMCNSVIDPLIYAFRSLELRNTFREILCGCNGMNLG
Experiment: cell-based or functional assay
Starred links: 1 amine or outer side, 2 acyl side, 3 side chain; linkers in the order of their positions; H or OH if unused. Positions of bridges follow the written chain, without caps; N, C: chain ends. Non-standard residues stand in square brackets, D forms with d. dTyr(4-OMe) = O-methyl-D-tyrosine (4-OMe), COc1ccc(C[C@@H](N[*:1])C(=O)[*:2])cc1; dPhe(4-Br) = N[C@H](Cc1ccc(Br)cc1)C(=O)O; dPhe(4-I) = N[C@H](Cc1ccc(I)cc1)C(=O)O; d(αMeF) = C[C@@](N)(Cc1ccccc1)C(=O)O; dNMeF = CN[C@H](Cc1ccccc1)C(=O)O; Nle = CCCC[C@H](N)C(=O)O

| binder | % max activation (%) |
| --- | --- |
| Ac-[Nle]CH[dPhe(4-I)]R[dW]C-NH2 (disulfide 2-7; SMILES CCCC[C@H](NC(C)=O)C(=O)N[C@H]1CSSC[C@@H](C(N)=O)NC(=O)[C@@H](Cc2c[nH]c3ccccc23)NC(=O)[C@H](CCCNC(=N)N)NC(=O)[C@@H](Cc2ccc(I)cc2)NC(=O)[C@H](Cc2c[nH]cn2)NC1=O) [CTX-1234] | 18 |
| Ac-RC[dA]R[dPhe(4-Br)]R[dW]CKP-NH2 (disulfide 2-8; SMILES CC(=O)N[C@@H](CCCNC(=N)N)C(=O)N[C@H]1CSSC[C@@H](C(=O)N[C@@H](CCCCN)C(=O)N2CCC[C@H]2C(N)=O)NC(=O)[C@@H](Cc2c[nH]c3ccccc23)NC(=O)[C@H](CCCNC(=N)N)NC(=O)[C@@H](Cc2ccc(Br)cc2)NC(=O)[C@H](CCCNC(=N)N)NC(=O)[C@@H](C)NC1=O) [CTX-1217] | 13 |
| Ac-RC[dA]R[d(αMeF)]R[dW]C-NH2 (disulfide 2-8; SMILES CC(=O)N[C@@H](CCCNC(=N)N)C(=O)N[C@H]1CSSC[C@@H](C(N)=O)NC(=O)[C@@H](Cc2c[nH]c3ccccc23)NC(=O)[C@H](CCCNC(=N)N)NC(=O)[C@@](C)(Cc2ccccc2)NC(=O)[C@H](CCCNC(=N)N)NC(=O)[C@@H](C)NC1=O) [CTX-1240] | 27 |
| Ac-RC[dA]R[dNMeF]R[dW]C-NH2 (disulfide 2-8; SMILES CC(=O)N[C@@H](CCCNC(=N)N)C(=O)N[C@H]1CSSC[C@@H](C(N)=O)NC(=O)[C@@H](Cc2c[nH]c3ccccc23)NC(=O)[C@H](CCCNC(=N)N)NC(=O)[C@@H](Cc2ccccc2)N(C)C(=O)[C@H](CCCNC(=N)N)NC(=O)[C@@H](C)NC1=O) [CTX-1272] | 0.9 |
| Ac-CGR[dTyr(4-OMe)]RFC-NH2 (disulfide 1-7; SMILES COc1ccc(C[C@H]2NC(=O)[C@H](CCCNC(=N)N)NC(=O)CNC(=O)[C@@H](NC(C)=O)CSSC[C@@H](C(N)=O)NC(=O)[C@H](Cc3ccccc3)NC(=O)[C@H](CCCNC(=N)N)NC2=O)cc1) [CTX-1641] | 22 |
